Numbers sourced from paper doi:10.1101/2020.12.21.423144.

Target: the molecule itself
Test: SEC
measurementType: binding result

# protein, reportedValue
data = [
    ("A2AR-Q372ΔC (domain or fragment) MPIMGSSVYITVELAIAVLAILGNVLVCWAVWLNSNLQNVTNYFVVSLAAADIAVGVLAIPFAITISTGFCAACHGCLFIACFVLVLTQSSIFSLLAIAIDRYIAIRIPLRYNGLVTGTRAKGIIAICWVLSFAIGLTPMLGWNNCGQPKEGKNHSQGCGEGQVACLFEDVVPMNYMVYFNFFACVLVPLLLMLGVYLRIFLAARRQLKQMESQPLPGERARSTLQKEVHAAKSLAIIVGLFALCWLPLHIINCFTFFCPDCSHAPLWLMYLAIVLSHTNSVVNPFIYAYRIREFRQTFRKIIRSHVLRQQEPFKAAGTSARVLAAHGSDGEQVSLRLNGHPPGVWANGSAPHPERRPNGYALGLVSGGSAQ", "binds"),
]
